Numbers sourced from ChEMBL document CHEMBL4425094.

Tested on: MDA-MB-231
experiment.notes: Cytotoxicity against human MDA-MB-231 cells assessed as cell growth inhibition after 24 hrs by MTT assay
Type: functional, cell-based
run.parameters: MDA-MB-231, 24 h
pIC50: −log10 of the molar value.
test.readout: pIC50

C[C@@H]1C[C@H](O)C[C@H]2c3cc(OCc4ccc(Br)cc4)c(OCc4ccc(Br)cc4)cc3CCN12
5.65
C[C@@H]1C[C@@H](O)C[C@H]2c3cc(OCc4ccc(Br)cc4)c(OCc4ccc(Br)cc4)cc3CCN12
6.06
C[C@@H]1C[C@@](C)(O)C[C@H]2c3cc(OCc4ccccc4)c(OCc4ccccc4)cc3CCN12
5.19
C[C@@H]1C[C@@](C)(O)C[C@H]2c3cc(OCc4cc(F)cc(F)c4)c(OCc4cc(F)cc(F)c4)cc3CCN12
5.55

---

Test system: DU-145
experiment.notes: Cytotoxicity against human DU145 cells assessed as cell growth inhibition after 24 hrs by MTT assay
Assay type: functional, cell-based
run.parameters: DU-145, 24 h
test.readout: IC50

COc1ccc([C@@H]2CC(=O)C[C@H]3c4cc(OCc5cc(F)cc(F)c5)c(OCc5cc(F)cc(F)c5)cc4CCN23)cc1OC (relative stereo)
> 20 µM
C[C@@H]1CC(=O)C[C@H]2c3cc(OCc4cc(C(F)(F)F)cc(C(F)(F)F)c4)c(OCc4cc(C(F)(F)F)cc(C(F)(F)F)c4)cc3CCN12 (relative stereo)
> 20 µM
CCC[C@@H]1C[C@H](O)C/C=C(/CC)[C@H]2c3cc(OCc4ccccc4)c(OCc4ccccc4)cc3CCN12
> 20 µM
C[C@@H]1C[C@@H](O)C[C@H]2c3cc(OCc4cc(C(F)(F)F)cc(C(F)(F)F)c4)c(OCc4cc(C(F)(F)F)cc(C(F)(F)F)c4)cc3CCN12
1.74 µM
COc1cc([C@@H]2CC(=O)C[C@H]3c4cc(OCc5ccccc5)c(OCc5ccccc5)cc4CCN23)cc(OC)c1OC (relative stereo)
> 20 µM
O=C1C[C@@H](c2ccccc2)N2CCc3cc(OCc4ccccc4)ccc3[C@@H]2C1 (relative stereo)
> 20 µM

---

Test system: DU-145
experiment.notes: Cytotoxicity against human DU145 cells assessed as cell growth inhibition after 24 hrs by MTT assay
Format: functional, cell-based
run.parameters: DU-145, 24 h
IC50 values by entry
test.readout: IC50

C[C@@H]1C[C@H](O)C[C@H]2c3cc(OCc4cc(C(F)(F)F)cc(C(F)(F)F)c4)c(OCc4cc(C(F)(F)F)cc(C(F)(F)F)c4)cc3CCN12
1.87 µM
O[C@@H]1C[C@@H](c2ccccc2)N2CCc3cc(OCc4ccccc4)c(OCc4ccccc4)cc3[C@@H]2C1
12 µM
O[C@H]1C[C@@H](c2ccccc2)N2CCc3ccc(OCc4ccccc4)cc3[C@@H]2C1
> 20 µM
Cc1cc(C)cc(COc2cc3c(cc2OCc2cc(C)cc(C)c2)[C@@H]2C[C@@H](O)C[C@@H](C)N2CC3)c1 (racemic)
1.51 µM
O[C@@H]1C[C@@H](c2ccccc2)N2CCc3ccccc3[C@@H]2C1
> 20 µM
O[C@@H]1C[C@@H](c2ccccc2)N2CCc3cc(OCc4ccccc4)ccc3[C@@H]2C1
> 20 µM
c1ccc(COc2cc3c(cc2OCc2ccccc2)[C@@H]2CCC[C@@H](c4ccccc4)N2CC3)cc1
> 20 µM
C[C@@H]1C[C@@](C)(O)C[C@H]2c3cc(OCc4ccccc4)c(OCc4ccccc4)cc3CCN12
2.11 µM
CCCCCC[C@@H]1C[C@H](O)C[C@H]2c3cc(OCc4ccccc4)c(OCc4ccccc4)cc3CCN12
> 20 µM
C[C@@H]1C[C@@](C)(O)C[C@H]2c3cc(OCc4cccc(F)c4)c(OCc4cccc(F)c4)cc3CCN12
2.14 µM
C[C@@H]1C[C@@H](O)C[C@H]2c3cc(OCc4ccccc4)c(OCc4ccccc4)cc3CCN12
2.18 µM
COc1ccc([C@@H]2C[C@H](O)C[C@H]3c4cc(OCc5cc(C)cc(C)c5)c(OCc5cc(C)cc(C)c5)cc4CCN23)cc1OC
> 20 µM
C[C@@H]1C[C@@H](O)C[C@H]2c3cc4c(cc3CCN12)OCO4
> 20 µM
CCCCCC[C@@H]1C[C@@H](O)C[C@H]2c3cc(OCc4ccccc4)c(OCc4ccccc4)cc3CCN12
> 20 µM
COc1ccc([C@@H]2C[C@H](O)C[C@H]3c4cc(OCc5cc(F)cc(F)c5)c(OCc5cc(F)cc(F)c5)cc4CCN23)cc1OC
> 20 µM
C[C@@H]1C[C@@H](O)C[C@H]2c3cc(OCc4cccc(F)c4)c(OCc4cccc(F)c4)cc3CCN12
3.85 µM
